test: Antiviral activity against Influenza A virus (A/Thailand/Kan353/2004(H5N1)) co-expressing NA plasmid infected in 293T cells assessed as inhibition of viral entry incubated for 30 mins followed by addition of cells measured after 48 hrs by luciferase reporter gene assay; type: functional, cell-based; details: HEK-293T
Measured parameter: pIC50
Lab note: report pIC50 as minus log10 of the concentration in molar units, number only.

Query: Consider the compound C[C@@H]1O[C@H](O[C@H]2[C@H](O[C@H]3CC[C@]4(C)[C@H]5CC=C6[C@@H]7CC(C)(C)CC[C@]7(C(=O)OCc7ccccc7)CC[C@@]6(C)[C@]5(C)CC[C@H]4C3(C)C)O[C@H](CO)[C@@H](O[C@H]3O[C@@H](C)[C@@H](O)[C@@H](O)[C@@H]3O)[C@@H]2O)[C@@H](O)[C@H](O)[C@@H]1O and give its measured pIC50.
Reply: 5.06

----------
# CC50 at 48 h annotations
assay: Cytotoxicity against MDCK cells after 2 days by MTT assay; type: cell-based, Canis lupus familiaris; conditions: dog
Dear colleague, please return just the value in µM, with no unit written.

Observe how each entry below is paired with its result.
>>> numeric_readout("C[C@@H]1O[C@@H](O[C@H]2[C@H](O[C@H]3CC[C@]4(C)[C@H]5CC=C6[C@@H]7CC(C)(C)CC[C@]7(C(=O)OCc7ccccc7)CC[C@@]6(C)[C@]5(C)CC[C@H]4C3(C)C)O[C@H](CO)[C@@H](O[C@@H]3O[C@@H](C)[C@H](O)[C@@H](O)[C@H]3O)[C@@H]2O)[C@H](O)[C@H](O)[C@H]1O")
23.5
>>> numeric_readout("CC1(C)CC[C@]2(C(=O)OCc3ccccc3)CC[C@]3(C)C(=CC[C@@H]4[C@@]5(C)CC[C@H](O[C@@H]6O[C@H](CO)[C@@H](O[C@H]7OC[C@@H](O)[C@H](O)[C@H]7O)[C@H](O)[C@H]6O[C@H]6OC[C@@H](O)[C@H](O)[C@H]6O)C(C)(C)[C@@H]5CC[C@]43C)[C@@H]2C1")
20.8

Query: Consider the molecule CC1(C)CC[C@]2(C(=O)OCc3ccccc3)CC[C@]3(C)C(=CC[C@@H]4[C@@]5(C)CC[C@H](O[C@@H]6O[C@H](CO)[C@@H](O[C@@H]7OC[C@H](O)[C@H](O)[C@H]7O)[C@H](O)[C@H]6O[C@@H]6OC[C@H](O)[C@H](O)[C@H]6O)C(C)(C)[C@@H]5CC[C@]43C)[C@@H]2C1 and give its measured CC50 at 48 h.
Reply: 26.4

----------
test: Cytotoxicity against MDCK cells after 2 days by MTT assay; assay type: cell-based, Canis lupus familiaris; settings: dog
Measured parameter: CC50 at 48 h (µM)
Dear colleague, please return just the value in µM, with no unit written.

Observe how each entry below is paired with its result.
>>> numeric_readout("COC(=O)[C@]12CCC(C)(C)C[C@H]1C1=CC[C@@H]3[C@@]4(C)CC[C@H](O[C@@H]5O[C@H](CO)[C@H](O[C@H]6O[C@H](C)[C@@H](O)[C@H](O)[C@@H]6O)[C@H](O)[C@H]5O[C@H]5O[C@H](C)[C@@H](O)[C@H](O)[C@@H]5O)C(C)(C)[C@@H]4CC[C@@]3(C)[C@]1(C)CC2")
45.6
>>> numeric_readout("C[C@@H]1O[C@H](O[C@H]2[C@H](O[C@H]3CC[C@]4(C)[C@H]5CC=C6[C@@H]7CC(C)(C)CC[C@]7(C(=O)OCc7ccccc7)CC[C@@]6(C)[C@]5(C)CC[C@H]4C3(C)C)O[C@H](CO)[C@@H](O[C@H]3O[C@@H](C)[C@@H](O)[C@@H](O)[C@@H]3O)[C@@H]2O)[C@@H](O)[C@H](O)[C@@H]1O")
27.4
>>> numeric_readout("C[C@@H]1O[C@@H](O[C@H]2[C@H](O[C@H]3CC[C@]4(C)[C@H]5C(=O)C=C6[C@@H]7CC(C)(C)CC[C@]7(C(=O)OCc7ccccc7)CC[C@@]6(C)[C@]5(C)CC[C@H]4C3(C)C)O[C@H](CO)[C@@H](O[C@@H]3O[C@@H](C)[C@H](O)[C@@H](O)[C@H]3O)[C@@H]2O)[C@H](O)[C@H](O)[C@H]1O")
92.7

Query: Consider the molecule C[C@H]1O[C@H](O[C@H]2[C@H](O[C@H]3CC[C@]4(C)[C@H]5CC=C6[C@@H]7CC(C)(C)CC[C@]7(C(=O)OCc7ccccc7)CC[C@@]6(C)[C@]5(C)CC[C@H]4C3(C)C)O[C@H](CO)[C@@H](O[C@H]3O[C@H](C)[C@@H](O)[C@H](O)[C@@H]3O)[C@@H]2O)[C@@H](O)[C@@H](O)[C@@H]1O and give its measured CC50 at 48 h.
Reply: 52.4

----------
experiment: Antiviral activity against Influenza A virus (A/Thailand/Kan353/2004(H5N1)) co-expressing NA plasmid infected in 293T cells assessed as inhibition of viral entry incubated for 30 mins followed by addition of cells measured after 48 hrs by luciferase reporter gene assay; format: functional, cell-based; conditions: HEK-293T
Measured parameter: pIC50
Lab note: report pIC50 as minus log10 of the concentration in molar units, number only.

Observe how each entry below is paired with its result.
>>> numeric_readout("COC(=O)[C@]12CCC(C)(C)C[C@H]1C1=CC[C@@H]3[C@@]4(C)CC[C@H](O[C@@H]5O[C@H](CO)[C@@H](O[C@@H]6O[C@@H](C)[C@H](O)[C@@H](O)[C@H]6O)[C@H](O)[C@H]5O[C@@H]5O[C@@H](C)[C@H](O)[C@@H](O)[C@H]5O)C(C)(C)[C@@H]4CC[C@@]3(C)[C@]1(C)CC2")
5.32
>>> numeric_readout("COC(=O)[C@]12CCC(C)(C)C[C@H]1C1=CC(=O)[C@@H]3[C@@]4(C)CC[C@H](O[C@@H]5O[C@H](CO)[C@@H](O[C@@H]6O[C@@H](C)[C@H](O)[C@@H](O)[C@H]6O)[C@H](O)[C@H]5O[C@@H]5O[C@@H](C)[C@H](O)[C@@H](O)[C@H]5O)C(C)(C)[C@@H]4CC[C@@]3(C)[C@]1(C)CC2")
5.39
>>> numeric_readout("C[C@@H]1O[C@@H](O[C@H]2[C@H](O[C@H]3CC[C@]4(C)[C@H]5CC=C6[C@@H]7CC(C)(C)CC[C@]7(C(=O)OCc7ccccc7)CC[C@@]6(C)[C@]5(C)CC[C@H]4C3(C)C)O[C@H](CO)[C@@H](O[C@@H]3O[C@@H](C)[C@H](O)[C@@H](O)[C@H]3O)[C@@H]2O)[C@H](O)[C@H](O)[C@H]1O")
5.32

Query: Consider the compound O=C(NCCN1CCCCC1)c1cc(F)cc(C(F)(F)F)c1 and give its measured pIC50.
Reply: 5.35

Query: Consider the compound C[C@@H]1O[C@@H](O[C@H]2[C@H](O[C@@H]3CC[C@]4(C)[C@H]5CC=C6[C@@H]7CC(C)(C)CC[C@]7(C(=O)OCc7ccccc7)CC[C@@]6(C)[C@]5(C)CC[C@H]4C3(C)C)O[C@H](CO)[C@@H](O[C@@H]3O[C@@H](C)[C@H](O)[C@@H](O)[C@H]3O)[C@@H]2O)[C@H](O)[C@H](O)[C@H]1O and give its measured pIC50.
Reply: 5.23

Query: Consider the compound COC(=O)[C@]12CCC(C)(C)C[C@H]1C1=CC[C@@H]3[C@@]4(C)CC[C@H](O[C@@H]5O[C@H](CO)[C@H](O[C@H]6O[C@H](C)[C@@H](O)[C@H](O)[C@@H]6O)[C@H](O)[C@H]5O[C@H]5O[C@H](C)[C@@H](O)[C@H](O)[C@@H]5O)C(C)(C)[C@@H]4CC[C@@]3(C)[C@]1(C)CC2 and give its measured pIC50.
Reply: 4.95

Query: Consider the compound C[C@H]1O[C@H](O[C@@H]2[C@H](O)[C@@H](O[C@H]3O[C@H](C)[C@@H](O)[C@H](O)[C@@H]3O)[C@H](O[C@H]3CC[C@]4(C)[C@H]5CC=C6[C@@H]7CC(C)(C)CC[C@]7(C(=O)OCc7ccccc7)CC[C@@]6(C)[C@]5(C)CC[C@H]4C3(C)C)O[C@@H]2CO)[C@@H](O)[C@@H](O)[C@@H]1O and give its measured pIC50.
Reply: 5.03

Query: Consider the compound COC(=O)[C@]12CCC(C)(C)C[C@H]1C1=CC[C@@H]3[C@@]4(C)CC[C@@H](O[C@@H]5O[C@H](CO)[C@@H](O[C@@H]6O[C@@H](C)[C@H](O)[C@@H](O)[C@H]6O)[C@H](O)[C@H]5O[C@@H]5O[C@@H](C)[C@H](O)[C@@H](O)[C@H]5O)C(C)(C)[C@@H]4CC[C@@]3(C)[C@]1(C)CC2 and give its measured pIC50.
Reply: 5.30

Query: Consider the compound COC(=O)[C@]12CCC(C)(C)C[C@H]1C1=CC[C@@H]3[C@@]4(C)CC[C@H](O[C@@H]5O[C@H](CO)[C@@H](O)[C@H](O)[C@H]5O[C@@H]5O[C@@H](C)[C@H](O)[C@@H](O)[C@H]5O)C(C)(C)[C@@H]4CC[C@@]3(C)[C@]1(C)CC2 and give its measured pIC50.
Reply: 4.79
